conditions: siRNA; note: test system not given here
HELM strings list units from the 5' end as sugar, base in round brackets, then linkage (d deoxyribose, r ribose, m 2'-O-methyl, p phosphodiester). Strings are as the collection lists them, not checked against the first reports. ss, as = sense and antisense strand; [fl2r] = 2'-fluoro
Reported target mRNA knockdown values follow for various substances
Numbers only; they are read as %.

Before answering, review these 2 worked examples.
# SUBSTANCE, ASSAY_VALUE
rows = [
    ("RNA1{r(G)p.r(G)p.r(C)p.r(C)p.r(U)p.r(U)p.r(U)p.r(C)p.r(U)p.r(C)p.r(U)p.r(C)p.r(U)p.r(A)p.r(G)p.r(A)p.r(U)p.r(A)p.r(U)p.r(T)p.r(T)}|RNA2{r(A)p.m(U)p.r(A)p.r(U)p.r(C)p.m(U)p.r(A)p.r(G)p.r(A)p.r(G)p.r(A)p.r(G)p.r(A)p.r(A)p.r(A)p.r(G)p.r(G)p.r(C)p.r(C)p.r(T)p.r(T)}$$$RNA1{StrandType:ss}|RNA2{StrandType:as}$", 90),
    ("RNA1{r(A)p.r(G)p.r(G)p.r(A)p.r(G)p.r(A)p.r(C)p.r(C)p.r(G)p.[fl2r](U)p.r(G)p.r(A)p.[fl2r](C)p.r(A)p.r(U)p.r(U)p.r(U)p.r(C)p.r(G)p.r(T)p.r(T)}|RNA2{r(C)p.r(G)p.r(A)p.r(A)p.r(A)p.[fl2r](U)p.r(G)p.r(U)p.r(C)p.[fl2r](A)p.r(C)p.r(G)p.r(G)p.r(U)p.r(C)p.r(U)p.r(C)p.r(C)p.r(U)p.r(T)p.r(T)}$$$RNA1{StrandType:ss}|RNA2{StrandType:as}$", 69),
]

Return reported target mRNA knockdown. Input substance: RNA1{r(A)p.r(G)p.[fl2r](U)p.r(A)p.r(A)p.r(U)p.r(C)p.r(C)p.r(G)p.r(G)p.r(A)p.r(C)p.r(U)p.r(C)p.r(A)p.r(A)p.r(C)p.r(U)p.r(C)p.r(T)p.r(T)}|RNA2{r(G)p.r(A)p.r(G)p.r(U)p.r(U)p.r(G)p.r(A)p.r(G)p.r(U)p.r(C)p.r(C)p.r(G)p.r(G)p.r(A)p.r(U)p.[fl2r](U)p.r(A)p.r(C)p.r(U)p.r(T)p.r(T)}$$$RNA1{StrandType:ss}|RNA2{StrandType:as}$ 69
